Target: T1, VLP-hCLDN6 (human) (UniProt P56747)
T1 sequence: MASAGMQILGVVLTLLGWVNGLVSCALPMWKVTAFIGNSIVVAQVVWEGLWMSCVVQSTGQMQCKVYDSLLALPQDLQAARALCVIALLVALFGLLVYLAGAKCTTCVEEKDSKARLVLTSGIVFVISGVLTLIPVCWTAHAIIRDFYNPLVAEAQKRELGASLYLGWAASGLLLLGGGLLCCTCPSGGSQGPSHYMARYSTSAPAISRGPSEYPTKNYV
Assay: ELISA, coated VLP-hCLDN6, 100 ul antibody sample (second well), HRP-Protein A
Below, each entry is listed alongside its reported OD450.
// print number alone

Some entries whose results are on file:
Binder: humanized antibody hAb-25 (antibody, V domains shown) VH: EVKLVESGGGLVKPGGSLRLSCAASGFTFNSYTMSWVRQTPAKRLEWVVTISSGGGRTYYPDSVKGRFTISRDNARNTLYLQMSSLRAEDTAVYYCIRGDYRYDGFAYWGQGTLVTVSS VL: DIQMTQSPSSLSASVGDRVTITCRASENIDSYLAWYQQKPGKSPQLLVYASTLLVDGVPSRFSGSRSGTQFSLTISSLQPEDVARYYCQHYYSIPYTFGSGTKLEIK
OD450: 2.24

Binder: humanized antibody hAb-15 (antibody, V domains shown) VH: EVKLVESGGGLVQPGGSLRLSCAASGFTFNSYTMSWVRQAPGKRLEWVVTISSGGGRTYYPDSVKGRFTISRDNAKNTLYLQMSSLRAEDTAVYYCIRGDYRYDGFAYWGQGTLVTVSS VL: DIQMTQSPSSLSASVGDRVTITCRASENIDSYLAWYQQKPGKSPQLLVYASTLLQDGVPSRFSGSRSGTQFTLTISSLQPEDVARYYCQHYYSIPYTFGSGTKLEIK
OD450: 1.8

Could you now consider this next binder?
Return reported OD450; argument: humanized antibody hAb-23 (antibody, V domains shown) VH: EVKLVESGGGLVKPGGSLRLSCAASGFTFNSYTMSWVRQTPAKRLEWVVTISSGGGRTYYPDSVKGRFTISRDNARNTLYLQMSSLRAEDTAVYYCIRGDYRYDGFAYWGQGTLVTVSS VL: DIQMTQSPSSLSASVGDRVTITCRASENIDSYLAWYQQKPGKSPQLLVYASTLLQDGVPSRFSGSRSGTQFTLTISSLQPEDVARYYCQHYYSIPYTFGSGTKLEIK 2.05
